Source of measurements: paper PMC12787000

// values below are reported Compound accumulation normalized to telmisartan, Chromatin Bound
tested on: A375 cells; assay: Cellular uptake and subcellular distribution by LC-MS/MS; format: cell-based; conditions: A375, 25 μM, 24 h, chromatin-bound nuclear fraction
quantity: Compound accumulation normalized to telmisartan, Chromatin Bound

- molecule: "CCCc1nc2c(C)cc(-c3nc4ccccc4n3C)cc2n1Cc1ccc(-c2ccccc2C(=O)NC(Cc2ccc(O)cc2)C(=O)O)cc1 (stereo not shown) [compound 3]"
  recorded.measurement: 0.52
- molecule: "CCCc1nc2c(C)cc(-c3nc4ccccc4n3C)cc2n1Cc1ccc(-c2ccccc2C(=O)NC(Cc2ccccc2)C(=O)O)cc1 (stereo not shown) [compound 8]"
  recorded.measurement: 11.90
- molecule: "CCCc1nc2c(C)cc(-c3nc4ccccc4n3C)cc2n1Cc1ccc(-c2ccccc2C(=O)NC(Cc2cn(C)c3ccccc23)C(=O)O)cc1 (stereo not shown) [compound 1]"
  recorded.measurement: 36.22
- molecule: "CCCc1nc2c(C)cc(-c3nc4ccccc4n3C)cc2n1Cc1ccc(-c2ccccc2C(=O)O)cc1 [Telmisartan, reference compound]"
  recorded.measurement: 1.00

* * *

test system: HaCaT (human keratinocytes); test: MTT cell viability assay, HaCaT; type: cell-based; conditions: 72 h
// values below are reported IC50

- compound: "CCCc1nc2c(C)cc(-c3nc4ccccc4n3C)cc2n1Cc1ccc(-c2ccccc2C(=O)NC(Cc2ccc(O)cc2)C(=O)O)cc1 (stereo not shown) [compound 3]"
  system.under.test: "HaCaT (human keratinocytes)"
  IC50, µM: 63.5
- compound: "CCCc1nc2c(C)cc(-c3nc4ccccc4n3C)cc2n1Cc1ccc(-c2ccccc2C(=O)O)cc1 [Telmisartan, reference compound]"
  system.under.test: "HaCaT (human keratinocytes)"
  IC50, µM: 148
- compound: "CCCc1nc2c(C)cc(-c3nc4ccccc4n3C)cc2n1Cc1ccc(-c2ccccc2C(=O)NC(Cc2ccccc2)C(=O)O)cc1 (stereo not shown) [compound 8]"
  system.under.test: "HaCaT (human keratinocytes)"
  IC50, µM: 70.8
- compound: "CCCc1nc2c(C)cc(-c3nc4ccccc4n3C)cc2n1Cc1ccc(-c2ccccc2C(=O)NC(Cc2cn(C)c3ccccc23)C(=O)O)cc1 (stereo not shown) [compound 1]"
  system.under.test: "HaCaT (human keratinocytes)"
  IC50, µM: 43.9

* * *

system: A375 cells; assay: Cellular uptake and subcellular distribution by LC-MS/MS; format: cell-based; details: A375, 25 μM, 24 h, cytoplasmic fraction
quantity: Compound accumulation normalized to telmisartan, Cytoplasm

- compound: "CCCc1nc2c(C)cc(-c3nc4ccccc4n3C)cc2n1Cc1ccc(-c2ccccc2C(=O)NC(Cc2cn(C)c3ccccc23)C(=O)O)cc1 (stereo not shown)"
  system.under.test: "A375 cells"
  recorded.measurement: 17.80
- compound: "CCCc1nc2c(C)cc(-c3nc4ccccc4n3C)cc2n1Cc1ccc(-c2ccccc2C(=O)O)cc1 [Telmisartan, reference compound]"
  system.under.test: "A375 cells"
  recorded.measurement: 1.00
- compound: "CCCc1nc2c(C)cc(-c3nc4ccccc4n3C)cc2n1Cc1ccc(-c2ccccc2C(=O)NC(Cc2ccc(O)cc2)C(=O)O)cc1 (stereo not shown)"
  system.under.test: "A375 cells"
  recorded.measurement: 3.64
- compound: "CCCc1nc2c(C)cc(-c3nc4ccccc4n3C)cc2n1Cc1ccc(-c2ccccc2C(=O)NC(Cc2ccccc2)C(=O)O)cc1 (stereo not shown)"
  system.under.test: "A375 cells"
  recorded.measurement: 11.17
